- SUBJECT OF TEST: T1, human GIP receptor (human, UniProt P48546 22-466)
- T1 sequence (looked up): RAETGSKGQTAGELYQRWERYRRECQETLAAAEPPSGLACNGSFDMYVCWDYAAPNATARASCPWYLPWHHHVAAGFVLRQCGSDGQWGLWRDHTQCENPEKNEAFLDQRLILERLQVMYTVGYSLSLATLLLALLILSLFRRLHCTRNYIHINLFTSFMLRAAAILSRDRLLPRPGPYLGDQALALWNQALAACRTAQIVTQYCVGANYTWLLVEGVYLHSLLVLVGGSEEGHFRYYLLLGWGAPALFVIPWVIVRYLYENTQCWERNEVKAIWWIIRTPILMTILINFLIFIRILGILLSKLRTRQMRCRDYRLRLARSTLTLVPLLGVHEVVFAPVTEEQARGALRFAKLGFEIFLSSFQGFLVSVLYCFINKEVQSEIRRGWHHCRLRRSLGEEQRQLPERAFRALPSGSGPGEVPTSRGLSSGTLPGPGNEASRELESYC
- TEST NAME: cell-based or functional assay
Starred links: 1 amine or outer side, 2 acyl side, 3 side chain; linkers in the order of their positions; H or OH if unused. Non-standard residues stand in square brackets, D forms with d. Groups on a side chain read outwards from the residue. No end group written: not given here. *: point of attachment. C20 diacid = O=C(O)CCCCCCCCCCCCCCCCCCC(=O)*; γGlu = O=C(O)[C@H](CCC(=O)[*:2])N[*:1]; εLys = N[C@@H](CCCCN[*:1])C(=O)[*:2]; AEEA = NCCOCCOCC(=O)O; Aib = CC(C)(N)C(=O)O
QUANTITY NAME: EC50, CreLuc assay, 0.5% hP (nM)

BINDER	QUANTITY NAME	MEASURED RESULT
YXEGTFTSDYSIXLEKQAQXAFVEWLIKGGPSSYVSLRHYYNWLTRQRY (Aib at 2, 13, 20; K28 side chain: C20DA-gGlu-gGlu-gGlu-gGlu-gGlu-gGlu-eLys; C-terminal NH2) [Compound 40]	EC50, CreLuc assay, 0.5% hP	0.48
Y[Aib]EGTFTSDYSI[Aib]LEEQAQ[Aib]AFVQWLIK([εLys-AEEA-γGlu-γGlu-γGlu-γGlu-γGlu-C20 diacid])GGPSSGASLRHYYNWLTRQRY-NH2 (also: TFA salt) [Compound 45]	EC50, CreLuc assay, 0.5% hP	0.14
YXEGTFTSDYSIXLEKQAQXAFVEWLIKGGPSSPESLRHYYNWLTRQRY (Aib at 2, 13, 20; K28 side chain: C20DA-gGlu-gGlu-gGlu-gGlu-gGlu-gGlu-eLys; C-terminal NH2) [Compound 73]	EC50, CreLuc assay, 0.5% hP	0.11
YXEGTFTSDYSIXLEKQAEXAFVQWLIKGGPSSGASLRHYYNWLTRQRY (Aib at 2, 13, 20; K28 side chain: C18DA-gGlu-gGlu-gGlu-gGlu-gGlu-gGlu-eLys; C-terminal NH2) [Compound 51]	EC50, CreLuc assay, 0.5% hP	0.23
YXEGTFTSDYSIXLEKQAQXAFVQWLIKGGQRSYASLRHYYNWLTRQRY (Aib at 2, 13, 20; K28 side chain: C20DA-gGlu-gGlu-gGlu-gGlu-gGlu-gGlu-eLys; C-terminal NH2) [Compound 3]	EC50, CreLuc assay, 0.5% hP	0.53
YXEGTFTSDYSIXLEEEAQXAFVEWLIKGGPSSGASLRHYYNWLTRQRY (Aib at 2, 13, 20; K28 side chain: C20DA-gGlu-gGlu-gGlu-gGlu-gGlu-gGlu-eLys; C-terminal NH2) [Compound 66]	EC50, CreLuc assay, 0.5% hP	0.64
